System: Aspergillus niger
test.method.notes: Antifungal activity against Aspergillus niger by twofold dilution method
Type: functional
test.context: Aspergillus niger; read-out: MIC
test.readout: MIC (µg/mL)

{"columns": ["compound", "test.readout", "units", "quantitative.result"],
 "data": [
  ["CC1/C(=N/OCc2ccccc2)CC(c2ccc(Cl)cc2)NC1c1ccc(Cl)cc1 (stereo not given)", "MIC", "µg/mL", 50],
  ["CC1/C(=N/OCc2ccccc2)CC(c2ccccc2)NC1c1ccccc1 (stereo not given)", "MIC", "µg/mL", 200],
  ["Cc1ccc([C@@H]2C/C(=N/OCc3ccccc3)C[C@H](c3ccc(C)cc3)S2)cc1", "MIC", "µg/mL", 50],
  ["Cc1ccc(C2OC(c3ccc(C)cc3)C(C)C(=NOCc3ccccc3)C2C)cc1 (stereo in doubt; 7d1)", "MIC", "µg/mL", 50],
  ["CCOC(=O)C1/C(=N/OCc2ccccc2)CC(c2ccccc2)NC1c1ccccc1 (stereo not given)", "MIC", "µg/mL", 200]
]}

---

System: Candida albicans
test.method.notes: Antifungal activity against Candida albicans by twofold dilution method
Assay type: functional
Collected log10 of MIC values appear next to each entry.
test.readout: log10 of MIC (log10 of the value in µg/mL)

{"columns": ["compound", "log10 of MIC"],
 "data": [
  ["Cc1ccc(C2OC(c3ccc(C)cc3)C(C)C(=NOCc3ccccc3)C2C)cc1 (stereo in doubt; 7d2)", 0.80],
  ["CC1C(=NOCc2ccccc2)C(C)C(c2ccccc2)NC1c1ccccc1 (stereo in doubt; 5f2)", 2.00],
  ["Cc1ccc(C2OC(c3ccc(C)cc3)C(C)C(=NOCc3ccccc3)C2C)cc1 (stereo in doubt; 7d1)", 1.40],
  ["CC1C(=NOCc2ccccc2)C(C)C(c2ccc(Cl)cc2)OC1c1ccc(Cl)cc1 (stereo in doubt; 7c1)", 1.70],
  ["CC1C(=NOCc2ccccc2)C(C)C(c2ccc(Cl)cc2)OC1c1ccc(Cl)cc1 (stereo in doubt; 7c2)", 1.10]
]}

---

Test system: Aspergillus niger
test.method.notes: Antifungal activity against Aspergillus niger by twofold dilution method
Type: functional
test.context: Aspergillus niger; read-out: MIC

{"columns": ["molecule", "units", "rel", "MIC"],
 "data": [
  ["CC1C(=NOCc2ccccc2)C(C)C(c2ccccc2)NC1c1ccccc1 (stereo in doubt; 5f1)", "µg/mL", "=", 100],
  ["COc1ccc(C2NC(c3ccc(OC)cc3)C(C)C(=NOCc3ccccc3)C2C)cc1 (configuration not stated)", "µg/mL", "=", 25],
  ["C[C@@H]1[C@H](O)[C@@H](C)/C=C/C=C/C=C/C=C/C=C/C=C/C=C/[C@H](O[C@@H]2O[C@H](C)[C@@H](O)[C@H](N)[C@@H]2O)C[C@@H]2O[C@](O)(C[C@@H](O)C[C@@H](O)[C@H](O)CC[C@@H](O)C[C@@H](O)CC(=O)O[C@H]1C)C[C@H](O)[C@H]2C(=O)O", "µg/mL", "=", 50],
  ["CC1C(=NOCc2ccccc2)C(C)C(c2ccc(Cl)cc2)NC1c1ccc(Cl)cc1 (configuration not stated)", "µg/mL", "=", 25],
  ["COc1ccc([C@@H]2CC(=NOCc3ccccc3)C[C@@H](c3ccc(OC)cc3)S2)cc1", "µg/mL", "=", 25],
  ["c1ccc(CON=C2CC(c3ccccc3)NC(c3ccccc3)C2)cc1 (configuration not stated)", "µg/mL", ">", 200],
  ["CCC1/C(=N\\OCc2ccccc2)CC(c2ccccc2)OC1c1ccccc1 (configuration not stated)", "µg/mL", "=", 200]
]}
